target: α2,3-sialyltransferase (Mus musculus, UniProt P54751); construct: made in house; assay: Assay of α2,3-sialyltransferase activity; type: biochemical; conditions: concentration of inhibitor in assay 30 μM
Sequence (P54751 whole entry): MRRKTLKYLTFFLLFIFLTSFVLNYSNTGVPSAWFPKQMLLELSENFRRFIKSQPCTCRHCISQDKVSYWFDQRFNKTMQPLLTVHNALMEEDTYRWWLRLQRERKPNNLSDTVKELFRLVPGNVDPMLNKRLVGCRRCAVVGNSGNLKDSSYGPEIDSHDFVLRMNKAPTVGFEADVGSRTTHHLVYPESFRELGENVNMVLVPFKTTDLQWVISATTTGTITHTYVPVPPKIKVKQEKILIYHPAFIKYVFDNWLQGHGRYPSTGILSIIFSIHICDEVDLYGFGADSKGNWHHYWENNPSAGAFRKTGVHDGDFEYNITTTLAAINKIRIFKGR
Percentage of inhibition (%) vs 80%: at or above is YES, below is NO.

Please tell me: is the compound CC1(C)C[C@@H](O)[C@]2(C)CC[C@]3(C)C(=CC[C@@H]4[C@@]5(C)CC[C@H](O[C@@H]6O[C@H](C(=O)O)[C@@H](O)[C@H](O)[C@H]6O[C@@H]6O[C@H](CO)[C@H](O)[C@H](O)[C@H]6O)[C@](C)(CO)[C@@H]5CC[C@]43C)[C@@H]2C1 [soyasaponin III] at or over 80% in terms of Percentage of inhibition (%)?
NO

Given C[C@@H]1O[C@@H](O[C@H]2[C@H](O[C@H]3[C@H](O[C@H]4CC[C@@]5(C)[C@@H](CC[C@]6(C)[C@@H]5CC=C5[C@@H]7CC(C)(C)C[C@@H](O)[C@]7(C)CC[C@]56C)[C@@]4(C)CO)O[C@H](C(=O)O)[C@@H](O)[C@@H]3O)O[C@H](CO)[C@H](O)[C@@H]2O)[C@H](O)[C@H](O)[C@H]1O [soyasaponin I] , state whether its Percentage of inhibition (%) is at least 80%.
YES

Tell me whether Percentage of inhibition (%) is at least 80% here: C[C@@H]1O[C@@H](O[C@H]2[C@H](O[C@H]3[C@H](O[C@H]4CC[C@@]5(C)[C@@H](CC[C@]6(C)[C@@H]5CC=C5[C@@H]7CC(C)(C)C[C@@H](O)[C@]7(C)CC[C@]56C)[C@@]4(C)CO)O[C@H](C(=O)O)[C@@H](O)[C@@H]3O)OC[C@H](O)[C@@H]2O)[C@H](O)[C@H](O)[C@H]1O [soyasaponin II]
YES

Further cases:
Hello, I need to know if CC1OC(OC2C(OC3C(OC4CCC5(C)C(CCC6(C)C5CC=C5C7CC(C)(C)CC(O)C7(C)CCC56C)C4(C)C)OC(C(=O)O)C(O)C3O)OC(CO)C(O)C2O)C(O)C(O)C1O (centres unmarked) [kaikasaponin III] has measured Percentage of inhibition (%) not below 80%. Thanks!
YES
